All values here come from ChEMBL document CHEMBL5131447.

# tgt: Orexin receptor type 2 (Homo sapiens, UniProt O43614)
# Sequence (O43614 whole entry): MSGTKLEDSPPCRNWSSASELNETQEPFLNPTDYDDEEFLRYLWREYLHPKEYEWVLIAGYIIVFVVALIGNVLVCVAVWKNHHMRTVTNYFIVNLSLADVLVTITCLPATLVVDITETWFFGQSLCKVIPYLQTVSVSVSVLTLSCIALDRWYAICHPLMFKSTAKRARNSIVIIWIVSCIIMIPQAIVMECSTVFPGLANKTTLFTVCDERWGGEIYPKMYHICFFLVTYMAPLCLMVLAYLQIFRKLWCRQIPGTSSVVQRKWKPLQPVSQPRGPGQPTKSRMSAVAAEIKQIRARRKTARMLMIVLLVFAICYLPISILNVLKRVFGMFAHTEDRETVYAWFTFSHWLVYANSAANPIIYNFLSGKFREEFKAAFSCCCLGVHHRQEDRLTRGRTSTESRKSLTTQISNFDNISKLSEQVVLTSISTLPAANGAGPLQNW
# protocol-details: Agonist activity at OX2R (unknown origin)
property: EC50 (nM)

The examples below pair each entry with its known result.
molecule: COc1ccc(-c2cccc(C(=O)N(C)C)c2)cc1S(=O)(=O)Nc1ccc2c(c1)C(N(C)C(=O)CCc1ccccc1)CCC2 (centres undefined)
output-unit: nM
EC50: 126
--
molecule: COc1cccc(CC(=O)OC2CCCc3ccc(NS(=O)(=O)c4cc(-c5cccc(C(=O)N(C)C)c5)ccc4OC)cc32)c1 (centres undefined)
output-unit: nM
EC50: 413

(a) COc1ccc(-c2cccc(C(=O)N(C)C)c2)cc1S(=O)(=O)Nc1ccc2c(c1)C(N(C)C(=O)C1CCCCC1)CCC2 (centres undefined)
(b) COc1ccc(CN(C)C2CCc3ccc(NS(=O)(=O)c4cc(-c5cccc(C(=O)N(C)C)c5)ccc4OC)cc32)cc1 (centres undefined)
Task: Response body: label of entry with the larger EC50; valid values a , b . // output: label of the selected item
Output: a
